tested on: BTSC30M; test: alamarBlue cell viability, BTSC 30M; assay type: cell-based, human; details: Homo sapiens, read-out: IC50 BTSC 30M
Measured Metric: IC50 (µM)
Answers are plain numbers, in µM.

Note to self: IC50 of CN(CC(=O)N(Cc1ccc(C2CCCCC2)cc1)c1ccc(C(=O)NO)cc1)S(=O)(=O)c1c(F)c(F)c(F)c(F)c1F [Compound 32] with BTSC30M was 0.971

----------
Test system: BTSC30M
Assay: alamarBlue cell viability, BTSC 30M
Format: cell-based, human
Conditions: Homo sapiens, read-out: IC50 (μM) 30M; Table 2; BTSC 30M, alamarBlue, 72 hrs
Procedure: First, the library was screened for biological activity against a set of three representative GBM BTSCs derived from GBM patients, including the very aggressive GBM BTSC lines, BTSC73M, BTSC30M, BTSC68EF. Dissociated BTSC spheres were seeded at 1500 cells/96-well and treated with drug compound or vehicle (DMSO) one day after plating. Cell viability following drug treatment was assessed after 72 hrs using the ALAMARBLUE™ assay (Invitrogen) according to the manufacturer's instructions. […]
Measured Metric: IC50
Give the figure together with its unit, number first.

Molecule | IC50
CN(CC(=O)N(Cc1ccc(C2CCCCC2)cc1)c1ccc(C(=O)O)cc1)S(=O)(=O)c1c(F)c(F)c(F)c(F)c1F | 0.432 µM

// switching to the query molecule
IC50 for C[C@H](NC(=O)/C(C#N)=C/c1cccc(Br)n1)c1ccccc1 [WP1066, reference compound] is 1.8 µM

Each recorded value in this set is attributed to patent US9650399B2.
